- ASSAY INFO: Drug level in rat brain at 10 mg/kg, po after 1 hr
- Type: ADME, organism-based
- Design: dose 10 mg/kg, route oral
- ASSAY CONDITIONS: read-out: Drug uptake
In this section, each of the compounds is paired with its reported log10(concentration at 1 h).
In our notation, the value equals log10 of concentration at 1 h in nM.

> print(dat)
                            chemical.smiles  assay.value
1  CNCc1cc(C#CCCN2CCOCC2)ccc1Oc1ccc(C(F)(F)F)cc1         3.25
2   CNCc1cc(C#CCCN2CCOCC2)ccc1Oc1ccc(Cl)cc1         3.14
3  CNCc1cc(C#CCCN(C)C2CC2)ccc1Oc1ccc(SC)cc1         2.30

query: Name the reported log10(concentration at 1 h) value associated with the compound CNCc1cc(C#CCCN2CCOCC2)ccc1Oc1cccc(Cl)c1
result: 3.37

query: Name the reported log10(concentration at 1 h) value associated with the compound CNCc1cc(C#CCCN2CCSCC2)ccc1Oc1ccc(SC)cc1
result: 1.94

query: Name the reported log10(concentration at 1 h) value associated with the compound CNCc1cc(C#CCCN2CCOCC2)ccc1Oc1ccc(Cl)c(C(F)(F)F)c1
result: 2.57
